tested on: PC3; experiment: Chemotoxicity, colony formation assay (CFA), PC3; type: cell-based, human; conditions: Homo sapiens, PC-3
pIC50: −log10 of the molar value.
measurementKind: pIC50

smilesRecord: Nc1ncn([C@H]2C[C@H](O)[C@@H](CO)O2)c(=O)n1
numericReadout: 6.52

====

system: SSTR2 in HEKsst2 cells; experiment: Saturation binding of Lu-177-DOTATATE, HEKsst2; parameters: species or system murine; settings: HEKsst2 stimulated with 5-aza-dC and VPA; 1 h, 37 °C; one-site model; excess DOTATATE for non-specific binding

substance: (DOTA)-[Tyr3, Thr8]-octreotide [Lu-177-DOTATATE, SSTR2-targeted radioligand, Lu-177 labelled (DOTA)-[Tyr3, Thr8]-octreotide]
Kd [nM]: 4.88
